experiment.notes: Quantitative High-Throughput drug screen in 47 multiple myeloma cell lines against the NCATS MIPE library collection: KMS21BM_JCRB cell viability assay (AID 1918974)
test.context: ATP luminescence, 48 h
Records with an inconclusive call do not appear. Activity calls are given as the source filed them. Calls follow the shape of the dose curve; as a rule, active = well fitted cell-killing curve with a large enough effect; inconclusive = small, poorly fitted or top-dose-only effect, or effect the other way; inactive = no such curve, though single readings can be large or run the other way. Starred links: 1 amine or outer side, 2 acyl side, 3 side chain; linkers in the order of their positions; H or OH if unused. Positions of bridges follow the written chain, without caps; N, C: chain ends. Non-standard residues stand in square brackets, D forms with d. Residues, ends and D or L forms follow the SMILES beside them. Chains are numbered I, II in the order given. Actinocin(9to1) = Cc1c2oc3c(C)ccc(C(=O)[*:1])c3nc-2c(C(=O)[*:2])c(N)c1=O; NMeV = CN[CH](C(=O)O)C(C)C; Sar = CNCC(=O)O
Hello, when you answer, please use one of the following outcomes: active, inactive

- molecule: "COc1ccc2c(c1OC)C(=O)OC2[C@H]1c2c(cc3c(c2OC)OCO3)CCN1C (stereo partly drawn)"
  label.class: "active"
- molecule: "CN1CCCN(C(=O)c2cccc(-c3ccc(C=C4C(=O)Nc5ccc(Cl)cc54)o3)c2)CC1"
  label.class: "active"
- molecule: "C[C@](Cc1c[nH]c2ccccc12)(NC(=O)OC1C2CC3CC(C2)CC1C3)C(=O)NC[C@H](NC(=O)CCC(=O)O)c1ccccc1 (stereo partly drawn)"
  label.class: "inactive"
- molecule: "CNC(=O)c1cccc(-c2ccc3c(N4CCOC[C@H]4C)nc(N4CCOC[C@H]4C)nc3n2)c1"
  label.class: "active"
- molecule: "Cc1c2oc3c(C)ccc(C(=O)NC4C(=O)NC(C(C)C)C(=O)N5CCCC5C(=O)N(C)CC(=O)N(C)C(C(C)C)C(=O)OC4C)c3nc-2c(C(=O)NC2C(=O)NC(C(C)C)C(=O)N3CCCC3C(=O)N(C)CC(=O)N(C)C(C(C)C)C(=O)OC2C)c(N)c1=O (stereo not drawn) (I: TVP[Sar][NMeV] / II: TVP[Sar][NMeV]; ester I:1-I:C, II:1-II:C; linker I:N-II:N via Actinocin(9to1); configuration not given here)"
  label.class: "inactive"
- molecule: "Cc1onc(-c2ccccc2)c1C(=O)N[C@@H]1C(=O)N2[C@@H](C(=O)O)C(C)(C)S[C@@H]12"
  label.class: "inactive"
- molecule: "CC(C)(N)c1ccc(-c2nc3ccccc3nc2-c2ccccc2)cc1"
  label.class: "active"
- molecule: "COc1cc(C(=O)NC2CCN(C)CC2)ccc1Nc1ncc2c(n1)N(C1CCCC1)CCC(=O)N2C(C)C"
  label.class: "active"
- molecule: "CN(C)c1ccc(C(=O)NCCCCCCC(=O)NO)cc1"
  label.class: "active"
- molecule: "NC(=O)Nc1cc(-c2ccc(CN3CCOCC3)cc2)sc1C(N)=O"
  label.class: "active"

Prompt: Can you look up the reported call for Oc1cc(-c2nc(-c3ccccc3)[nH]c2-c2ccncc2)ccc1Cl for me?
Response: active

Prompt: Can you look up the reported call for Cn1cc(-c2cnn3c(N)c(Br)c([C@H]4CCCNC4)nc23)cn1 for me?
Response: active

Prompt: Can you look up the reported call for COc1cc(C(C)C)c(Oc2cnc(NC(CO)CO)nc2N)cc1I for me?
Response: active

---

experiment.notes: Quantitative High-Throughput drug screen in 47 multiple myeloma cell lines against the NCATS MIPE library collection: FR4_PLB cell viability assay (AID 1918924; also: nearly all actives have a fitted effect of over 35% in size)
test.context: FR4_PLB myeloma cells viability, CellTiter-Glo ATP, 48 h; series mostly up to 45.8 µM
Results filed as inconclusive are left out. Calls of active or inactive are those of the source. Calls come from the whole dose curve; as a rule, active = well fitted cell-killing curve with a large enough effect; inconclusive = small, poorly fitted or top-dose-only effect, or effect the other way; inactive = no such curve, though single readings can be large or run the other way. Positions of bridges follow the written chain, without caps; N, C: chain ends. Non-standard residues stand in square brackets, D forms with d. Residues, ends and D or L forms follow the SMILES beside them. ξ: configuration not given here. *: point of attachment. Octanoyl(6-Me) = CCC(C)CCCCC(=O)*; ξThr(3R) = C[C@@H](O)C(N)C(=O)O; dDab = NCC[C@@H](N)C(=O)O; Dab = NCC[C@H](N)C(=O)O
Hello, when you answer, please use one of the following outcomes: active, inactive

- compound: "C[C@@H]1CC[C@@]2(OC1)OC1CC3C4CC=C5CC(O)CCC5(C)C4CCC3(C)C1[C@@H]2C (stereo partly specified)"
  label.class: "inactive"
- compound: "CC[C@H](CC[C@@H](C)[C@H]1CC[C@H]2[C@@H]3CC=C4C[C@@H](O)CC[C@]4(C)[C@@H]3CC[C@]12C)C(C)C"
  label.class: "inactive"
- compound: "CCN(C(=O)c1c(O)c2c(Cl)cccc2n(C)c1=O)c1ccccc1"
  label.class: "inactive"
- compound: "CCC(C)CCCCC(=O)N[C@@H](CCN)C(=O)NC(C(=O)N[C@H](CCN)C(=O)N[C@@H]1CCNC(=O)C([C@@H](C)O)NC(=O)[C@@H](CCN)NC(=O)[C@@H](CCN)NC(=O)[C@@H](CC(C)C)NC(=O)[C@H](Cc2ccccc2)NC(=O)[C@H](CCN)NC1=O)[C@@H](C)O (stereo partly drawn) ({Octanoyl(6-Me)}-[Dab][ξThr(3R)][dDab][dDab][Dab]F[dL][dDab][dDab][ξThr(3R)]; lactam 4-C)"
  label.class: "inactive"

Prompt: Can you look up the reported call for C=C1C(=O)O[C@H]2[C@@H]1CCC(C)=CCC[C@@]1(C)O[C@@H]21 for me?
Response: active

Prompt: Can you look up the reported call for CCOC(=O)N1CCN([N+]([O-])=NOc2ccc([N+](=O)[O-])cc2[N+](=O)[O-])CC1 for me?
Response: active

---

experiment.notes: qHTS of pediatric cancer cell lines to identify multiple opportunities for drug repurposing: Primary screen for TC32 cells (AID 1347089); also: nearly all actives have a fitted effect of over 60% in size
test.context: TC32 Ewing sarcoma viability, CellTiter-Glo luminescence, 48 h; series mostly up to 45.8 µM
Inconclusive results are not listed. Activity calls are given as the source filed them. Calls come from the whole dose curve; as a rule, active = well fitted cell-killing curve with a large enough effect; inconclusive = small, poorly fitted or top-dose-only effect; inactive = flat fitted curve, though single readings scatter.
Hello, when you answer, please use one of the following outcomes: YES = active, NO = inactive

- molecule: "CC[C@H]1OC(=O)[C@H](C)[C@@H](O[C@H]2C[C@@](C)(OC)[C@@H](O)[C@H](C)O2)[C@H](C)[C@@H](O[C@@H]2O[C@@H](C)C[C@H](N(C)C)[C@@H]2O)[C@](C)(O)C[C@@H](C)C(=O)[C@H](C)[C@@H](O)[C@]1(C)O"
  label.class: "NO"

Prompt: Can you look up the reported call for COc1ccc(Nc2nccc(NCCO)n2)cc1 for me?
Response: NO

Prompt: Can you look up the reported call for c1ccc2c(Oc3nc(Nc4ccc(N5CCOCC5)cc4)c4ncn(C5CCCCC5)c4n3)cccc2c1 for me?
Response: NO

Prompt: Can you look up the reported call for O=C(O)C(=O)Nc1cccc(C2=NN=N[N]2)c1 for me?
Response: NO

Prompt: Can you look up the reported call for CC(C=CC(=O)NO)=C[C@@H](C)C(=O)c1ccc(N(C)C)cc1 for me?
Response: YES

Prompt: Can you look up the reported call for CCCCOc1ccc(C(=O)Nc2ccc(F)cc2F)cc1 for me?
Response: NO

Prompt: Can you look up the reported call for C#C[C@]1(O)CC[C@@H]2[C@@H]3CCC4=CC(=O)CC[C@@H]4[C@H]3CC[C@@]21CC for me?
Response: NO

Prompt: Can you look up the reported call for CCNC(=O)c1cc2c(-c3cc(OCCN4CCCC4)c(Cl)cc3Cl)nc(N)nc2s1 for me?
Response: YES

Prompt: Can you look up the reported call for Cc1onc(-c2ccccc2)c1C(=O)N[C@@H]1C(=O)N2[C@@H](C(=O)O)C(C)(C)S[C@@H]12 for me?
Response: NO

Prompt: Can you look up the reported call for C[C@]12CC[C@@H]3c4ccc(O)cc4CC[C@H]3[C@H]1CC[C@H]2O for me?
Response: NO

---

Test system: NIH3T3
experiment.notes: Cytotoxic Profiling of Annotated Libraries Using Quantitative High-Throughput Screening (AID 1296008); also: % is scaled to controls: 0 for no effect and ±100 for the full control effect; nearly all actives have a fitted effect of over 60% in size
test.context: Five cell lines viability, CellTiter-Glo ATP luminescence, 48-72 h; hits give low values
Method: Cell-based phenotypic screening is a commonly used approach to discover biological pathways, novel drug targets, chemical probes and high-quality hit-to-lead molecules. […] A pintool (Kalypsys) was used to transfer 23 nL of compound solution to the 1536-well assay plates. […] Plates were left at room temperature for 10 min before imaging the ATP-coupled luminescence using a ViewLux microplate imager (PerkinElmer, Waltham, MA).
Records with an inconclusive call do not appear.
measured.property: max response (%)
Reply numerically in %, unit not repeated.

Prompt: Which max response reading was recorded for the compound CN[C@H](CC(C)C)C(=O)N[C@H]1C(=O)N[C@@H](CC(N)=O)C(=O)N[C@@H]2C(=O)N[C@H]3C(=O)N[C@H](C(=O)N[C@H](C(=O)O)c4cc(O)cc(O)c4-c4cc3ccc4O)[C@H](O)c3ccc(c(Cl)c3)Oc3cc2cc(c3O[C@@H]2O[C@H](CO)[C@@H](O)[C@H](O)[C@@H]2O[C@H]2C[C@](C)(N)[C@H](O)[C@H](C)O2)Oc2ccc(cc2Cl)[C@H]1O ?
Response: -4.89

Prompt: Which max response reading was recorded for the compound C[C@@H]1CC[C@@]2(OC1)OC1CC3C4CC=C5CC(O)CCC5(C)C4CCC3(C)C1[C@@H]2C (some centres not stated) ?
Response: -12.1
